target: CFTR ΔF508 mutant (Homo sapiens, UniProt P13569, DEL508-508); construct: expressed in transfected cells; host or cells: CFBE41o- (adenoviral transduction); assay: YFP-halide influx assay for the CFTR-ΔF508 mutation (96 well, CFBE41o- cells); assay type: cell-based; conditions: compounds of the invention, 96 well, forskolin 10.67 μM, read-out: EC50 measured by YFP-halide influx assay for the CFTR-ΔF508
Sequence (P13569 with tags, fused parts or gaps DEL508-508): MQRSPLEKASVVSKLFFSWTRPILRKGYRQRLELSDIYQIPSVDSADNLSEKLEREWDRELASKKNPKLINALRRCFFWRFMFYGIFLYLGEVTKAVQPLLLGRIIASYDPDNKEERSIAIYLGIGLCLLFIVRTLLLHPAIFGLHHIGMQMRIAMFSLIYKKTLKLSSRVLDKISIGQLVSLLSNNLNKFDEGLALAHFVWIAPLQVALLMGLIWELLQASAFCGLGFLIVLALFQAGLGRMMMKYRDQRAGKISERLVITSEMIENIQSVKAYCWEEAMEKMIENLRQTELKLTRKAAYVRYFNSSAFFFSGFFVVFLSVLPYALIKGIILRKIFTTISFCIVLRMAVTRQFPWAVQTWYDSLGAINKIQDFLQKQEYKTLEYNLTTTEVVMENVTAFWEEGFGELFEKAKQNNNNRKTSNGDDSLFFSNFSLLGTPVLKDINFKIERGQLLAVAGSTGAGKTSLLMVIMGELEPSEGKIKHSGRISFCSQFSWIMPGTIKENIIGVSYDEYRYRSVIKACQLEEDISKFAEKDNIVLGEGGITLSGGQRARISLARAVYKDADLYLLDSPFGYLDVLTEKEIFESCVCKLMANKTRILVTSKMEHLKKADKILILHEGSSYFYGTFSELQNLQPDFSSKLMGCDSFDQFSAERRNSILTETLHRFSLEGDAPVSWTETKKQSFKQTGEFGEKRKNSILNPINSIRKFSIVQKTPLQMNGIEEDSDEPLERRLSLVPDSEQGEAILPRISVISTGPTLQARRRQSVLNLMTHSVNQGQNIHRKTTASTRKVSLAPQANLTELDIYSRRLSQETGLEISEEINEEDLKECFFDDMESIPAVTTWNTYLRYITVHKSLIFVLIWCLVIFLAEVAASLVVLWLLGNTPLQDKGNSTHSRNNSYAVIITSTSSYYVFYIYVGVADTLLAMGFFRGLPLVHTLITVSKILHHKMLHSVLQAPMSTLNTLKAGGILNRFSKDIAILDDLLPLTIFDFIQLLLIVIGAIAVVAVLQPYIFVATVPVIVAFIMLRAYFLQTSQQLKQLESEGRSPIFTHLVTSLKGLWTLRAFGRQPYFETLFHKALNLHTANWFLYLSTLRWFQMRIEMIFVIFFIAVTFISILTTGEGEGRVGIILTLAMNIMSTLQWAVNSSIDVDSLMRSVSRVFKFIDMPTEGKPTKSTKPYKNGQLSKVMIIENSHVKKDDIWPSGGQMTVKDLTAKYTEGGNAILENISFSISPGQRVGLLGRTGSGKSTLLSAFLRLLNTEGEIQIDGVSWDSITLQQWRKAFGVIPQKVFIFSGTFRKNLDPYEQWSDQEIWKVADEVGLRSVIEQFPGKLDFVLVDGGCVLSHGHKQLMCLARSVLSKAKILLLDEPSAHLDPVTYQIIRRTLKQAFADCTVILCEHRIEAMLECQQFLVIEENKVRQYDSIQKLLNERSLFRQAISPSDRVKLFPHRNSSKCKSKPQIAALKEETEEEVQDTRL
value type: EC50 (nM)

The examples below pair each entry with its known result.
>  <compound>
CC1(C)Cc2c(sc(NC(=O)c3nnc[nH]3)c2C(N)=O)C(C)(C)O1

>  <EC50, nM>
829

$$$$
>  <compound>
CCc1n[nH]c(C(=O)Nc2sc3c(c2C(N)=O)CC(C)(C)OC3(C)C)c1C

>  <EC50, nM>
41.8

$$$$
>  <compound>
CC1(C)Cc2c(sc(NC(=O)C3CCNC3=O)c2C(N)=O)C(C)(C)O1 (centres unmarked)

>  <EC50, nM>
141

$$$$
>  <compound>
CC1(C)Cc2c(sc(NC(=O)C3CNC(=O)C3)c2C(N)=O)C(C)(C)O1 (centres unmarked)

>  <EC50, nM>
10000

$$$$
>  <compound>
CC1(C)Cc2c(sc(NC(=O)c3ccccc3-c3ncn[nH]3)c2C(N)=O)C(C)(C)O1

>  <EC50, nM>
1270

$$$$
>  <compound>
CC1(C)Cc2c(sc(NC(=O)c3cccc(F)n3)c2C(N)=O)C(C)(C)O1

>  <EC50, nM>
314

$$$$

[1] CC1(C)Cc2c(sc(NC(=O)c3cc(C4CC4)[nH]n3)c2C(N)=O)C(C)(C)O1
[2] CC1(C)Cc2c(sc(NC(=O)c3ccccc3NS(C)(=O)=O)c2C(N)=O)C(C)(C)O1
[3] CC1(C)Cc2c(sc(NC(=O)C3(O)CC3)c2C(N)=O)C(C)(C)O1
[4] CC(=O)OC1(C(=O)Nc2sc3c(c2C(N)=O)CC(C)(C)OC3(C)C)CCOCC1
[5] CC(O)C(=O)Nc1sc2c(c1C(N)=O)CC(C)(C)OC2(C)C (centres unmarked)
input: Given 5 compounds, produce a descending ranking by EC50. Show the ranking through the labels, in the order asked for.
output: 4, 2, 5, 3, 1
(4: 1740 nM, 2: 378 nM, 5: 219 nM, 3: 32 nM, 1: 17.9 nM)

* * *

target: CFTR G551D (Homo sapiens, UniProt P13569, G551D); experiment: TECC assay, FRT cells stably transfected with G551D CFTR; details: high expression CFTR-G551D cells, several values in a cell = repeat determinations
Sequence (P13569 whole entry G551D): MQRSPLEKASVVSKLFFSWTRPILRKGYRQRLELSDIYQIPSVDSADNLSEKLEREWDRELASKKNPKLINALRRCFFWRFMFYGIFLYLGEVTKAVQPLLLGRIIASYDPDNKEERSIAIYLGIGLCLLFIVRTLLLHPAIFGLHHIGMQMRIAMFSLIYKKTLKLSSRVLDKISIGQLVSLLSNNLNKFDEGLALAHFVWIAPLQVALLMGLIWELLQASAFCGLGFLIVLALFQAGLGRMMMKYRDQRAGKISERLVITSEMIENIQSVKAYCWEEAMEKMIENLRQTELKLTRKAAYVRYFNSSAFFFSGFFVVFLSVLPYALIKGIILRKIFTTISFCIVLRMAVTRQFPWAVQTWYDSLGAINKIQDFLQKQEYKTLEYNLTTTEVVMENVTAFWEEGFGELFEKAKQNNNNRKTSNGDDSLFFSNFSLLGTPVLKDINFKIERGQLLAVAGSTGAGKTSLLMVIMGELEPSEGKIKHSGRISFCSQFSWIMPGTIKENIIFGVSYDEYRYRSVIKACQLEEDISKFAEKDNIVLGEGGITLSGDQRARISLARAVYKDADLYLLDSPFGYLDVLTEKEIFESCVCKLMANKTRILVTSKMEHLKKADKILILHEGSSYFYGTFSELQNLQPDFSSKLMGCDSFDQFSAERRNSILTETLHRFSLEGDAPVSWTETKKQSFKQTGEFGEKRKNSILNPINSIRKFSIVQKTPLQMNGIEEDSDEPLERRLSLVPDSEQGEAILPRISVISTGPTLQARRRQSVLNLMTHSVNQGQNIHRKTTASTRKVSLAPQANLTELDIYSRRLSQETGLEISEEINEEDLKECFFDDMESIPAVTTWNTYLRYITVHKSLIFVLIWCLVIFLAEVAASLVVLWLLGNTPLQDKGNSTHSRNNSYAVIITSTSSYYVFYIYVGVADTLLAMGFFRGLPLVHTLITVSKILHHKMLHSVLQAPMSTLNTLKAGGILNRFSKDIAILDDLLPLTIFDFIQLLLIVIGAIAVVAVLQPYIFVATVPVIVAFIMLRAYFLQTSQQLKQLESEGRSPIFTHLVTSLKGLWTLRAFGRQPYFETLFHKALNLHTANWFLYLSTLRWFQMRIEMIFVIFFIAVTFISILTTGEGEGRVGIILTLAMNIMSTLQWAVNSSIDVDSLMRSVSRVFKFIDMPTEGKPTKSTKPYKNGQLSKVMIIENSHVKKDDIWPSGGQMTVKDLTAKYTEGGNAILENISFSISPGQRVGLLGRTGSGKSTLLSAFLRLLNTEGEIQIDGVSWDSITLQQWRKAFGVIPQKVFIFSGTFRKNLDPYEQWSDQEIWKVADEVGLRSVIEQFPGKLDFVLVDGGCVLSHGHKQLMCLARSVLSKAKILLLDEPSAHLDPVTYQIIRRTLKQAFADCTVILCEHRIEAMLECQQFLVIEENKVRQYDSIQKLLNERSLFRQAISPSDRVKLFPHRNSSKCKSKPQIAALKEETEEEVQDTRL
pEC50: −log10 of the molar value.
value type: pEC50

>  <compound>
CC(C)(C)CC(O)C(=O)Nc1sc2c(c1C(N)=O)CC(C)(C)OC2(C)C (single isomer, unassigned)

>  <test result>
6.72

$$$$

[a] CC1(C)Cc2c(sc(NC(=O)c3[nH]ncc3Cl)c2C(N)=O)C(C)(C)O1
[b] Cc1cn[nH]c1C(=O)Nc1sc2c(c1C(N)=O)CC(C)(C)OC2(C)C
input: Lab note: check whether a or b has the lower measured pEC50. Select an item and report its label.
output: a

* * *

target: CFTR-S549N (Homo sapiens, UniProt P13569, S549N); experiment: YFP-halide influx assay for the CFTR-S549N; settings: CFTR-S549N mutant; read-out: EC50 measured by YFP-halide influx assay for the CFTR-S549N
Sequence (P13569 whole entry S549N): as the sequence (P13569 whole entry G551D) above, with S549N, D551G counted along it
pEC50: −log10 of the molar value.
value type: pEC50

Some compounds with known pEC50 results, for comparison:
>  <compound>
CC1(C)Cc2c(sc(NC(=O)c3cnco3)c2C(N)=O)C(C)(C)O1

>  <test result>
5.58

$$$$
>  <compound>
CC1(C)Cc2c(sc(NC(=O)C3(CO)CCC3)c2C(N)=O)C(C)(C)O1

>  <test result>
5.71

$$$$
>  <compound>
CC1(C)Cc2c(sc(NC(=O)[C@@H](O)C(C)(C)C)c2C(N)=O)C(C)(C)O1

>  <test result>
7.50

$$$$

[a] CC(C)c1cc(C(=O)Nc2sc3c(c2C(N)=O)CC(C)(C)OC3(C)C)n[nH]1
[b] COCc1[nH]nc(C(=O)Nc2sc3c(c2C(N)=O)CC(C)(C)OC3(C)C)c1Cl
[c] CC(C)C(O)C(=O)Nc1sc2c(c1C(N)=O)CC(C)(C)OC2(C)C (stereo not shown) [Compound 39]
input: Provide the items ranked by increasing pEC50. # answer = labels listed in requested order
output: c, a, b
